- system.name: Nuclear receptor coactivator 2 (Homo sapiens)
- measurement.description: inhibition of GAL4-SRC2 driven luciferase reporter, primary screen, SRC2 inhibitor project, cell-based, luminescence (AID 651957)
- stated.conditions: HEK293 GAL4-SRC2 luciferase reporter, at 9 µM
The campaign covered roughly 370,000 compounds. About 620 (0.17%) were called active.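 The calls were made as follows: active = inhibition above the mean inhibition of all tested compounds plus 3 SD, set per campaign (cut at about 52% in these data); inactive = the rest.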 The entries come from a sample that favours actives as a whole.
Classes used: T for active, F for inactive

| molecule | system.name | qualitative.label |
| --- | --- | --- |
| COc1ccc(S(=O)(=O)NCC(=O)NCc2cc(=O)n(C)c(=O)n2C)cc1F | Nuclear receptor coactivator 2 (Homo sapiens) | F |
| Cn1c(Nc2ccccc2)cc(=O)n(C)c1=O | Nuclear receptor coactivator 2 (Homo sapiens) | F |
| COC(=O)[C@]12C[C@H](CC(=O)NCc3cccc(C(F)(F)F)c3)C(=O)N(Cc3ccc4c(c3)OCO4)C1=C[C@H](COCc1ccccc1)O[C@@H]2C | Nuclear receptor coactivator 2 (Homo sapiens) | F |
| OCCCNc1nccc(-c2cc(Nc3cccc(Cl)c3)ncn2)n1 | Nuclear receptor coactivator 2 (Homo sapiens) | T |
| CCOC(=O)c1sc(N)c(C#N)c1COC(=O)C1=COCCO1 | Nuclear receptor coactivator 2 (Homo sapiens) | F |
| CCOc1ccc(NC(=S)NC(=O)/C=C/c2ccc(OC)cc2)c([N+](=O)[O-])c1 | Nuclear receptor coactivator 2 (Homo sapiens) | T |
| COc1ccc(/C=C/C(=O)NC(=S)N2CCCC(C(N)=O)C2)cc1 (stereo not given) | Nuclear receptor coactivator 2 (Homo sapiens) | F |
| Cc1ccc(NC(=O)Nc2cc(C)nn2-c2ccccc2)cc1 | Nuclear receptor coactivator 2 (Homo sapiens) | F |
| CCCCOCCCNC(=O)C[C@H]1C[C@@]2(C(=O)OC)C(=C[C@H](C(C)(C)C)O[C@@H]2C)N(CCc2ccc(OC)c(OC)c2)C1=O | Nuclear receptor coactivator 2 (Homo sapiens) | F |
| c1csc(-c2nnc(SCc3nc4ccccc4[nH]3)o2)c1 | Nuclear receptor coactivator 2 (Homo sapiens) | F |
